- experimental-target: Ribosomal protein S6 kinase beta-1 (Homo sapiens);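 also: values are mean inhibition of p70S6K1, measured as part of the GSK PKIS panel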
- stated-conditions: at 1 µM
Form field: inhibition (one value per entry).
Enter your answer as a number in %; do not include the unit.

Solved entries (count: 2):
1) CCN(CC)S(=O)(=O)c1ccc(OC)c(Nc2ncc(-c3ccccc3)o2)c1	0.49
2) COc1ccc(-c2oc3ncnc(N)c3c2-c2ccc(NC(=O)Nc3cc(C(F)(F)F)ccc3F)cc2)cc1	68.2

Shift focus to the following entry.
Query: For Ribosomal protein S6 kinase beta-1 (Homo sapiens), provide inhibition of COc1cc(/C=N/Nc2ncnc3[nH]ncc23)ccc1O please.
Response: 21.4

* * *

- experimental-target: Cyclin-dependent kinase 6 (Homo sapiens) (UniProt Q00534);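 also: mean percent inhibition of the kinase bound to its cyclin partner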
- Sequence (Q00534 whole entry): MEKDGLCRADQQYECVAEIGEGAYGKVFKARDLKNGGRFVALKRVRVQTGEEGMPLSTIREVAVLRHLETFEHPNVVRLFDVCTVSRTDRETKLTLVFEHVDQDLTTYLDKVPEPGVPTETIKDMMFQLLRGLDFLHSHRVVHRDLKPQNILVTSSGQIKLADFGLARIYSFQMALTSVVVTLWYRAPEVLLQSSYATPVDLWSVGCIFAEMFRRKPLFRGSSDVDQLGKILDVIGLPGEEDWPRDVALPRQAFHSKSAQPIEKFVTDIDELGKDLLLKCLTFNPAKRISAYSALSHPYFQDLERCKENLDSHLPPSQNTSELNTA
- stated-conditions: at 1 µM
Form field: inhibition (one value per entry).
Enter your answer as a number in %; do not include the unit.

Solved entries (count: 3):
1. CCOc1ccc2c(-c3ccnc(Nc4cccc(C(F)(F)F)c4)n3)cnn2n1	1.85
2. CN(C)CCOc1ccc(-c2nc(-c3ccncc3)c(-c3ccc4c(c3)CC/C4=N\O)[nH]2)cc1	9.02
3. O=C(O[C@H]1CN[C@H](C#Cc2cc3ncnc(Nc4ccc(Cc5ccccc5)cc4)c3s2)C1)N1CCOCC1	-1.41

Shift focus to the following entry.
Query: Consider the molecule COc1cc2ncn(-c3cc(OCc4ccccc4C(F)(F)F)c(C(=O)N(C)C)s3)c2cc1OC and give its measured inhibition.
Response: -0.75

* * *

Form field: inhibition (one value per entry).
- experimental-target: Homeodomain-interacting protein kinase 4 (Homo sapiens);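 also: reported as mean inhibition, part of the GSK PKIS dataset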
- stated-conditions: at 0.1 µM

Solved entries (count: 4):
1. NS(=O)(=O)c1ccc(N/N=C2\C(=O)Nc3ccc4ncccc4c32)cc1	6.71%
2. Cc1cccc(Nc2ncc(-c3ccccc3)o2)c1	1.22%
3. Nc1nc(-c2ccc(F)cc2)c(-c2ccc3ncccc3n2)s1	4.95%
4. Fc1cccc(COc2ccc(Nc3ncnc4sc(-c5ccco5)cc34)cc2Cl)c1	2.99%

Query: For Homeodomain-interacting protein kinase 4 (Homo sapiens), provide inhibition of CCn1c(-c2nonc2N)nc2c(C#CC(C)(C)O)ncc(OC3CCNCC3)c21 please.
Response: 1.04%

Query: Similarly, Clc1ccc(-c2nn3ncccc3c2-c2ccnc(Nc3ccccc3)n2)cc1 ?
Response: 0.5%

Query: Similarly, Nc1ncc(-c2cccc(S(N)(=O)=O)c2)c2scc(-c3ccc(F)c(Cl)c3)c12 ?
Response: 1.4%

Query: Similarly, c1ccc(COc2ccc(Nc3ncnc4ccc(-c5ccco5)cc34)cc2)cc1 ?
Response: 0.31%

Query: Similarly, CCn1c(-c2nonc2N)nc2cnc(Oc3cccc(NC(=O)c4ccc(N(C)C)cc4)c3)cc21 ?
Response: -1.11%

* * *

- experimental-target: cGMP-dependent protein kinase 2 (Homo sapiens) (UniProt Q13237);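 also: mean inhibition of PRKG2 from the GSK PKIS screen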
- Sequence (Q13237 whole entry): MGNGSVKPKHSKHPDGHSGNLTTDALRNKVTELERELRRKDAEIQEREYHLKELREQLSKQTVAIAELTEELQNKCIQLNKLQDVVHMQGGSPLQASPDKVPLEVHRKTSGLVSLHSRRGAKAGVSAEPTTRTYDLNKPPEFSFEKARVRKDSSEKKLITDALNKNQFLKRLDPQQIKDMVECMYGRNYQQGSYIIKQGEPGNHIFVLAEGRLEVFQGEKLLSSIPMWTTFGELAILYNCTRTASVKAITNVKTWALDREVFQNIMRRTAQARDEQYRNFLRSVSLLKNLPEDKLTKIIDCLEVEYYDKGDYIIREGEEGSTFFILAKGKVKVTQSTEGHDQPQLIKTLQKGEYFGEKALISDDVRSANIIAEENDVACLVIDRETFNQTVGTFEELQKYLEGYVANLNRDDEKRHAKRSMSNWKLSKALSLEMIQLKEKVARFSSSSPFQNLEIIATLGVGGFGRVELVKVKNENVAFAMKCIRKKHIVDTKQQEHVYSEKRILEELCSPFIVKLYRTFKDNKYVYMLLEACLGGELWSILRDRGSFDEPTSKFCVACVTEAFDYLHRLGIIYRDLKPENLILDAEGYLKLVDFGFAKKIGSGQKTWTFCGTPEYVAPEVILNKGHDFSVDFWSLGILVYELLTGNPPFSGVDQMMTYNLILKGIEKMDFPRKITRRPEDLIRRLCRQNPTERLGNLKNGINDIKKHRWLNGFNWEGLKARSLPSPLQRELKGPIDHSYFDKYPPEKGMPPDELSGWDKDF
- stated-conditions: at 1 µM
Form field: inhibition (one value per entry).
Enter your answer as a number in %; do not include the unit.

Solved entries (count: 3):
1. Nc1nc(-c2ccc(F)cc2)c(-c2ccc3ncccc3n2)s1	4.3
2. CCn1cc(-c2ccnc3[nH]ccc23)c(-c2cccc(NC(=O)Nc3ccc(OCc4ccccc4)cc3)c2)n1	1.43
3. N#Cc1c(NC(=O)c2ccc(F)cc2)sc2c1CCCC2	3.35

Query: Consider the compound Clc1ccc(-c2nn3ncccc3c2-c2ccnc(Nc3ccccc3)n2)cc1 and give its measured inhibition.
Response: 3.41

Query: Similarly, CN(C)CCOc1ccc(-c2nc(-c3ccncc3)c(-c3ccc4c(c3)CC/C4=N\O)[nH]2)cc1 ?
Response: 12.3

Query: Similarly, CCn1c(-c2nonc2N)nc2c(C#CC(C)(C)O)ncc(OC3CCNCC3)c21 ?
Response: 83.2

* * *

- experimental-target: SRSF protein kinase 1 (Homo sapiens);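 also: values are mean percent inhibition of SRPK1 kinase, measured in the GSK PKIS screening panel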
- stated-conditions: at 0.1 µM
measure: inhibition
Report as: number unit

1. Nc1nc(-c2cccc(Cl)c2)c(-c2ccc3ncccc3n2)s1	0.23%
2. CCn1c(-c2nonc2N)nc2c(C#CC(C)(C)O)nc(OC[C@H](N)c3ccccc3)cc21	-2.57%
3. CC(=O)Nc1cccc(C#Cc2cncnc2Nc2ccc(OCc3cccc(F)c3)c(Cl)c2)c1	-1.41%
4. COc1cccc(-c2c[nH]c3c(N/N=C/c4ccncc4)ncnc23)c1	0.71%
5. CCn1c(-c2nonc2N)nc2c(C#CC(C)(C)O)ncc(OC3CCNCC3)c21	-3.24%

Query: For SRSF protein kinase 1 (Homo sapiens), provide inhibition of COC(=O)c1sc(-n2cnc3cc(OC)c(OC)cc32)cc1OCc1ccccc1C(F)(F)F please.
Response: -3.05%

Query: Similarly, CNC(=O)c1cccc(C#Cc2cncnc2Nc2ccc(OCc3cccc(F)c3)c(Cl)c2)c1 ?
Response: -1.88%

Query: Similarly, CCOc1ccc2c(-c3ccnc(Nc4cccc(C(F)(F)F)c4)n3)cnn2n1 ?
Response: -3.06%

Query: Similarly, COc1ccc(CNC(=O)c2ccc(-c3cc(-c4nnc(C)o4)ccc3C)cc2)cc1 ?
Response: 2.79%

Query: Similarly, COc1cc(N2CCN(C(C)C)CC2)ccc1Nc1nc(Nc2ccc(F)cc2C(N)=O)c2cc[nH]c2n1 ?
Response: -2.51%

Query: Similarly, COc1cc2ncn(-c3cc(OCc4ccccc4C(F)(F)F)c(C(=O)N(C)C)s3)c2cc1OC ?
Response: -1.25%

* * *

Form field: inhibition (one value per entry).
- experimental-target: Macrophage colony-stimulating factor 1 receptor (Homo sapiens);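 also: value reported is the mean inhibition of FMS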
- stated-conditions: at 0.1 µM
Enter your answer as a number in %; do not include the unit.

Query: For Macrophage colony-stimulating factor 1 receptor (Homo sapiens), provide inhibition of CCNC(=O)O[C@H]1CN[C@H](C#Cc2cc3ncnc(Nc4ccc(OCc5cccc(F)c5)c(Cl)c4)c3s2)C1 please.
Response: 3.01

Query: Similarly, Clc1ccc(-c2nn3ncccc3c2-c2ccnc(Nc3ccccc3)n2)cc1 ?
Response: 4.3

Query: Similarly, Nc1nc(-c2cccc(Cl)c2)c(-c2ccc3ncccc3n2)s1 ?
Response: 1.82

Query: Similarly, Cc1cccc(Nc2ncc(-c3ccccc3)o2)c1 ?
Response: 9.54

Query: Similarly, COc1ccc(CNC(=O)c2ccc(-c3cc(-c4nnc(C)o4)ccc3C)cc2)cc1 ?
Response: 1.47

Query: Similarly, COc1ccc(-c2oc3ncnc(N)c3c2-c2ccc(NC(=O)Nc3cc(C(F)(F)F)ccc3F)cc2)cc1 ?
Response: 21.9

Query: Similarly, CCCN1CCC(c2ccc(Nc3nc(Nc4cc(F)ccc4C(N)=O)c4cc[nH]c4n3)c(OC)c2)CC1 ?
Response: 34.3

Query: Similarly, CCN(CC)S(=O)(=O)c1ccc(OC)c(Nc2ncc(-c3ccccc3)o2)c1 ?
Response: 42.4

Query: Similarly, CCn1c(-c2nonc2N)nc2ccccc21 ?
Response: 0.61

Query: Similarly, COC(=O)c1sc(-n2cnc3cc(OC)c(OC)cc32)cc1OCc1ccccc1C(F)(F)F ?
Response: 16.2

Query: Similarly, Nc1ncc(-c2cccc(S(N)(=O)=O)c2)c2scc(-c3ccc(F)c(Cl)c3)c12 ?
Response: 6.9

Query: Similarly, N#Cc1c(NC(=O)c2ccc(F)cc2)sc2c1CCCC2 ?
Response: 0.56

Query: Similarly, Fc1cccc(COc2ccc(Nc3ncnc4sc(-c5ccco5)cc34)cc2Cl)c1 ?
Response: 0.84

Query: Similarly, COc1cc(/C=N/Nc2ncnc3[nH]ncc23)ccc1O ?
Response: 7.59

Query: Similarly, Nc1nc(-c2ccc(F)cc2)c(-c2ccc3ncccc3n2)s1 ?
Response: 3.44

Query: Similarly, COc1cccc(-n2ncc3c(N/N=C/c4ccc(F)cc4)ncnc32)c1 ?
Response: 6.04

Query: Similarly, CCn1c(-c2nonc2N)nc2c(C#CC(C)(C)O)ncc(OC3CCNCC3)c21 ?
Response: 1.2

* * *

Form field: inhibition (one value per entry).
- experimental-target: Tyrosine-protein kinase Srms (Homo sapiens)
- stated-conditions: at 1 µM
- Description: GSK_PKIS: SRMS mean inhibition at 1 uM [Nanosyn]
Enter your answer as a number in %; do not include the unit.

1) O=C(O[C@H]1CN[C@H](C#Cc2cc3ncnc(Nc4ccc(Cc5ccccc5)cc4)c3s2)C1)N1CCOCC1	-2.02
2) COc1ccc(-c2nn3ncccc3c2-c2ccnc(Nc3ccc4c(c3)OCCO4)n2)cc1	0.99
3) COc1cc2c(cc1Nc1nc(Nc3ccsc3C(N)=O)c3cc[nH]c3n1)N(C(=O)CN(C)C)CCC2(C)C	-3.22
4) CS(=O)(=O)CCNCc1coc(-c2ccc3ncnc(Nc4ccc(OCc5ccccc5)cc4)c3c2)c1	3.19

Query: Consider the compound Nc1ncc(-c2cccc(S(N)(=O)=O)c2)c2scc(-c3ccc(F)c(Cl)c3)c12 and give its measured inhibition.
Response: 6.75

* * *

- experimental-target: Tyrosine-protein kinase ABL1 (Homo sapiens);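 also: reported values are mean percent inhibition of ABL1 kinase activity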
- stated-conditions: at 1 µM
Form field: inhibition (one value per entry).
Report as: number unit

Solved entries (count: 3):
1. CNC(=O)c1cccc(C#Cc2cncnc2Nc2ccc(OCc3cccc(F)c3)c(Cl)c2)c1	5.91%
2. CCCN(CCS(C)(=O)=O)Cc1ccc(-c2ccc3ncnc(Nc4ccc(OCc5cccc(F)c5)c(Cl)c4)c3c2)o1	6.41%
3. CN(C)CCOc1ccc(-c2nc(-c3ccncc3)c(-c3ccc4c(c3)CC/C4=N\O)[nH]2)cc1	40.7%

Shift focus to the following entry.
Query: Consider the compound N#Cc1c(NC(=O)c2ccc(F)cc2)sc2c1CCCC2 and give its measured inhibition.
Response: 4.24%
